Hey, just so you know, these numbers are from patent US20200361992A1.

# key: entry, value: FPN IC50
# Assay target: T1, human ferroportin (SLC40A1) fused in frame with the GFP protein, stably expressed in HEK293 cells (human, UniProt Q9NP59 1-571)
# T1 sequence (looked up): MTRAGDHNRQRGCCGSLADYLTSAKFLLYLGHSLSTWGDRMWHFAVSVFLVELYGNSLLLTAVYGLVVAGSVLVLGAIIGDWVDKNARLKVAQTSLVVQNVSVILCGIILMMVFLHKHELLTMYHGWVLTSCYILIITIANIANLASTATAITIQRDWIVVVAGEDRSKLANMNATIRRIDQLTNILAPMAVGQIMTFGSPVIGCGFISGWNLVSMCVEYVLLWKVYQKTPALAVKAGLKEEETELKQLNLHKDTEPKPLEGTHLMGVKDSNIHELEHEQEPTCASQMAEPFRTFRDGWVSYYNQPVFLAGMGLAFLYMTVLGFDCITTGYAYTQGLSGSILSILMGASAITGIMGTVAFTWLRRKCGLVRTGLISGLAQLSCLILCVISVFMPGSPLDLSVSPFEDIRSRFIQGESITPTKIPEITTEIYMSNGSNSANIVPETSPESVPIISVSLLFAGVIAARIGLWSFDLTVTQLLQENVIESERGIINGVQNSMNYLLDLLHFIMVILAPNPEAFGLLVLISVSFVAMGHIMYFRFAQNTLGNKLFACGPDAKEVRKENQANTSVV
# Protocol notes: cell-based or functional assay
Positions of bridges follow the written chain, without caps; N, C: chain ends. Non-standard residues stand in square brackets, D forms with d. Groups on a side chain read outwards from the residue. *: point of attachment. PEG12 = NCCOCCOCCOCCOCCOCCOCCOCCOCCOCCOCCOCCOCCC(=O)O; Palmitoyl = CCCCCCCCCCCCCCCC(=O)*; β3hF = N[C@H](CC(=O)O)Cc1ccccc1; Isovaleryl = CC(C)CC(=O)*; Npc = nipecotic acid
Value type: FPN IC50

INSERT INTO results (binder, observed_value) VALUES
  ('DTHXPCIKXKKC (N-terminal isovaleric acid; Dpa 4; (D)Lys 8; bhPhe 9; Lys(Peg11-Palm) 10; dLys_Ac 11; C-terminal amide; disulfide between the two Cys (6 and 12)) [Compd ID 175]', '5 nM'),
  ('DTHXPCIKXKKC (N-terminal isovaleric acid; D-Asp 1; Dpa 4; (D)Lys 8; bhPhe 9; Lys(Peg11-Palm) 10; (D)Lys 11; C-terminal amide; disulfide between the two Cys (6 and 12)) [Compd ID 169]', '12 nM'),
  ('DTHXPCIKFKCK (N-terminal isovaleric acid; bhPhe 4; (D)Lys 8; Lys(Peg11-Palm) 10; (D)Lys 12; C-terminal amide; disulfide between the two Cys (6 and 11)) [Compd ID 171]', '47 nM'),
  ('DTHXPCIKXKCK (N-terminal isovaleric acid; Dpa 4; (D)Lys 8; bhPhe 9; Lys(Peg11-Palm) 10; (D)Lys 12; C-terminal amide; disulfide between the two Cys (6 and 11)) [Compd ID 170]', '10 nM'),
  ('Isovaleryl-DTH[β3hF][Npc]CI[dK]FK([PEG12-Palmitoyl])C[dK]-NH2 (disulfide 6-11) [Compd ID 172]', '39 nM');
